// provenance: patent US11618747B2

// EC50 lookup, one value per entry
tgt: LXRβ ligand-binding domain (Homo sapiens, UniProt P55055, DUP175-175)
Construct: amino acids 156-461; NP009052; made in house; host or cells: E. coli
Sequence (P55055 with tags, fused parts or gaps DUP175-175 limits assumed): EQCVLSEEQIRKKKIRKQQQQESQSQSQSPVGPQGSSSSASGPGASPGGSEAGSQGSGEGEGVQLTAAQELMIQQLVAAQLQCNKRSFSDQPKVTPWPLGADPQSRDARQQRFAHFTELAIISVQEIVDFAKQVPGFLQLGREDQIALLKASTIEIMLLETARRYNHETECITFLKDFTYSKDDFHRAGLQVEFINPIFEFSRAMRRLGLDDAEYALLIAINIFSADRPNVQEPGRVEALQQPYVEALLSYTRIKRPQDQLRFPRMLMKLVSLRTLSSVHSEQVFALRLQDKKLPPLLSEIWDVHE
experimentalProtocol: TR-FRETβ activity assay (NCoA3 coactivator peptide recruitment)
Assay type: biochemical
conditionParameters: TR-FRET, 1 μM 24(S)-25-epoxycholesterol prestimulation; read-out: FRETβ (EC50 range)

compound: N#Cc1cc(C(=O)O)ccc1-c1cccc(-c2c(-c3ccccc3C#N)c3cc(F)ccc3n2S(=O)(=O)c2ccc(C(F)F)cc2)c1
EC50: < 100 nM

compound: Cc1ccc(S(=O)(=O)n2c(-c3cccc(-c4ccc(C(N)=O)cc4)c3)c(-c3ccsc3C#N)c3cc(F)ccc32)cc1
EC50: 100 to 1000 nM

compound: Cc1ccc(S(=O)(=O)n2c(-c3cccc(-c4ccc(CO)c(S(=O)(=O)CC(=O)O)c4)c3)c(-c3ccsc3C#N)c3ccccc32)cc1
EC50: 100 to 1000 nM

compound: Cc1cccc(C#N)c1-c1c(-c2cccc(-c3ccc(C(=O)O)cc3Cl)c2)n(S(=O)(=O)c2ccc(C(F)F)cc2)c2ccc(F)cc12 (single isomer, unassigned) [41/1]
EC50: < 100 nM

compound: N#Cc1cccc(C#N)c1-c1c(-c2cccc(Br)c2)n(S(=O)(=O)c2ccc(C(F)F)cc2)c2ccc(F)cc12
EC50: 100 to 1000 nM

compound: Cc1ccc(S(=O)(=O)n2c(-c3cccc(-c4ccc(C(C)(O)C(=O)O)cc4)c3)c(-c3ccsc3C#N)c3cc(F)ccc32)cc1 (stereo not shown)
EC50: 100 to 1000 nM

compound: O=C(O)c1ccc(-c2cccc(-c3c(-c4cccc5nncn45)c4cc(F)ccc4n3S(=O)(=O)c3ccc(C(F)F)cc3)c2)c(Cl)c1
EC50: 100 to 1000 nM

compound: Cc1ccc(S(=O)(=O)n2c(-c3cc(N4CC(C(=O)O)C4)ccc3Cl)c(-c3ccsc3C#N)c3cc(F)ccc32)cc1
EC50: 1000 to 10000 nM

compound: [2H]c1c([2H])c(S(=O)(=O)n2c(-c3cccc(-c4ccc(C(=O)O)cc4Cl)c3)c(-c3ccsc3C#N)c3cc(F)ccc32)c([2H])c([2H])c1C([2H])([2H])[2H]
EC50: < 100 nM

compound: Cc1ccc(S(=O)(=O)n2c(-c3cccc(N4CC(C(=O)O)C4)c3)c(-c3ccccc3C3COC3)c3cc(F)ccc32)cc1
EC50: 100 to 1000 nM

compound: N#Cc1ccncc1-c1c(-c2cccc(-c3cc(F)c(C(=O)O)cc3Cl)c2)n(S(=O)(=O)c2ccc(C(F)F)cc2)c2ccc(F)cc12
EC50: < 100 nM

compound: Cc1cccc(C)c1-c1c(-c2cccc(-c3ccc(C(=O)O)cc3Cl)c2)n(S(=O)(=O)c2ccc(C(F)F)cc2)c2ccc(F)cc12
EC50: < 100 nM

compound: Cc1ccc(S(=O)(=O)n2c(-c3cccc(-c4cc(C(=O)O)nn4C(C)C)c3)c(-c3ccsc3C#N)c3cc(F)ccc32)cc1
EC50: 1000 to 10000 nM

###

// EC50 lookup, one value per entry
tgt: full length (FL) LXRα (Homo sapiens, UniProt Q13133)
Construct: the full length (FL) proteins of LXRα (amino acids 1-447); NP005684; expressed in transfected cells; host or cells: HEK293
Sequence (Q13133 whole entry, the tested form may be a part): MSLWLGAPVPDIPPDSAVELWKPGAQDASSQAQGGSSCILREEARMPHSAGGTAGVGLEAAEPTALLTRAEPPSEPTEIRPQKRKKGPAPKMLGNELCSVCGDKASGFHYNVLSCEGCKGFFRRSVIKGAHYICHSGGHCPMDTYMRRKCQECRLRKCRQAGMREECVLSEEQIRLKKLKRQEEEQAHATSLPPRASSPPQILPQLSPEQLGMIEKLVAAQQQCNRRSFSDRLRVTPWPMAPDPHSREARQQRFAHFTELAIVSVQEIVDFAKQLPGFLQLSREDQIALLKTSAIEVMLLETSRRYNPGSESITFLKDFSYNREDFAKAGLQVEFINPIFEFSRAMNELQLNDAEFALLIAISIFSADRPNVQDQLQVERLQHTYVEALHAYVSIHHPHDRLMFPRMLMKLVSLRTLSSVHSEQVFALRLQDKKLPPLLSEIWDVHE
experimentalProtocol: LXR Gal4 reporter transient transfection assay (FL-M2H Gal4α)
Type: cell-based
conditionParameters: HEK293 cells, full length LXRα; read-out: FL-M2H Gal4α (EC50 range)
Method: The tested compounds were usually dissolved, tested and stored as 20 mM stock solutions in DMSO. […] LXRα and LXRβ activity status was determined via detection of interaction with coactivator and corepressor proteins in mammalian two-hybrid experiments (M2H). […] Interaction was monitored via activation of a coexpressed Firefly Luciferase Reporter gene under control of a promoter containing repetitive GAL4 response elements (vector pFRLuc; Stratagene). […]

compoundStructure: O=C(O)c1ccc(-c2cccc(-c3c(-c4cccc5nonc45)c4cc(F)ccc4n3S(=O)(=O)c3ccc(C(F)F)cc3)c2)c(Cl)c1
EC50: < 100 nM
//
compoundStructure: Cc1ccc(S(=O)(=O)n2c(-c3cccc(-c4cc(F)c(C(=O)O)cc4Cl)c3)c(-c3ccsc3C#N)c3cc(F)ccc32)cc1
EC50: < 100 nM
//
compoundStructure: CC1CCN(S(=O)(=O)n2c(-c3cccc(N4CC(C(=O)O)C4)c3)c(-c3ccsc3C#N)c3cc(F)ccc32)CC1
EC50: 100 to 1000 nM
//
compoundStructure: Cc1ccc(S(=O)(=O)n2c(-c3cccc(-c4ccc(C(=O)O)cc4Cl)c3)c(-c3cccc(C)c3C#N)c3cc(F)ccc32)cc1
EC50: < 100 nM
